- Target entity: Aspartate--tRNA(Asp/Asn) ligase (Mycobacterium tuberculosis (strain ATCC 25618 / H37Rv))
- Assay text: Assay for Asp RNA synthetase-1 from Mycobacterium tuberculosis
- Assay type: functional
- Design: scale not given: in the data most compounds retested in dose-response had high values
- Condition summary: 30 µM
# Percent Effect per entry
Could you give me the number in %? Just the number is fine.

Study these solved cases before continuing.
>  <Compound>
O=C(NCc1ccco1)C1CCCN1Cc1nc(-c2ccco2)no1 (centres undefined)

>  <Target entity>
Aspartate--tRNA(Asp/Asn) ligase (Mycobacterium tuberculosis (strain ATCC 25618 / H37Rv))

>  <Percent Effect (%)>
3.58

$$$$
>  <Compound>
CC(C1CC1)N(C)C(=O)c1cnc(-c2ccc3c(c2)OCO3)s1 (centres undefined)

>  <Target entity>
Aspartate--tRNA(Asp/Asn) ligase (Mycobacterium tuberculosis (strain ATCC 25618 / H37Rv))

>  <Percent Effect (%)>
3.36

$$$$
>  <Compound>
O=C(NC1CCCC1)N1CCCC(c2nccn2Cc2ccncc2)C1 (centres undefined)

>  <Target entity>
Aspartate--tRNA(Asp/Asn) ligase (Mycobacterium tuberculosis (strain ATCC 25618 / H37Rv))

>  <Percent Effect (%)>
-4.62

$$$$
>  <Compound>
Cc1cc(C)cc(-c2cccc(CC3(C(=O)O)CCOCC3)c2)c1

>  <Target entity>
Aspartate--tRNA(Asp/Asn) ligase (Mycobacterium tuberculosis (strain ATCC 25618 / H37Rv))

>  <Percent Effect (%)>
2.93

$$$$
>  <Compound>
O=C(c1ccno1)N1CCC2(CC1)C(=O)N(CC1CC1)c1ccccc12

>  <Target entity>
Aspartate--tRNA(Asp/Asn) ligase (Mycobacterium tuberculosis (strain ATCC 25618 / H37Rv))

>  <Percent Effect (%)>
-0.569

$$$$
>  <Compound>
NC(=O)COc1ccc(CNCc2ccc(F)c(F)c2)cc1

>  <Target entity>
Aspartate--tRNA(Asp/Asn) ligase (Mycobacterium tuberculosis (strain ATCC 25618 / H37Rv))

>  <Percent Effect (%)>
-1.73

$$$$
>  <Compound>
COc1cc2cc(C(=O)O)n(C)c2c(OC)c1OC

>  <Target entity>
Aspartate--tRNA(Asp/Asn) ligase (Mycobacterium tuberculosis (strain ATCC 25618 / H37Rv))

>  <Percent Effect (%)>
-3.95

$$$$
>  <Compound>
Cc1ccccc1CN1CCC(NCC2CNc3ccnn3C2)CC1 (centres undefined)

>  <Target entity>
Aspartate--tRNA(Asp/Asn) ligase (Mycobacterium tuberculosis (strain ATCC 25618 / H37Rv))

>  <Percent Effect (%)>
0.127

$$$$
>  <Compound>
CCn1cc(CN2CCCC(CO)(CCc3ccccc3)C2)c(C)n1 (centres undefined)

>  <Target entity>
Aspartate--tRNA(Asp/Asn) ligase (Mycobacterium tuberculosis (strain ATCC 25618 / H37Rv))

>  <Percent Effect (%)>
0.494

$$$$
>  <Compound>
Cc1cc(C)c(CNC(=O)N(C)Cc2sccc2C)c(=O)[nH]1

>  <Target entity>
Aspartate--tRNA(Asp/Asn) ligase (Mycobacterium tuberculosis (strain ATCC 25618 / H37Rv))

>  <Percent Effect (%)>
2.05

$$$$

## Task Suppose we examine the compound Cc1nn(CC(=O)N2CCCC2Cn2cccn2)c(C)c1Cl (centres undefined) ; what Percent Effect value has been reported?
## Result 0.155

## Task Would you mind telling me what Percent Effect value was observed for Cc1nc[nH]c1CN1CCN(C(=O)c2cccs2)[C@H]2CS(=O)(=O)C[C@H]21 ?
## Result -4.62

## Task Could you share which Percent Effect value was measured for O=C(c1cnccn1)N1CCc2ncnc(-c3cccnc3)c2CC1 ?
## Result -2.48

## Task Returns the measured Percent Effect for the input compound. Input: O=C(NCCNc1ccccn1)N1CCSCC1
## Result -5.89

## Task // returns reported Percent Effect for input COCCCNC(=O)CN1CCCC1c1c(C)nn(C)c1Cl (centres undefined)
## Result -4.32

## Task Could you tell me which Percent Effect is on file for CCCc1nnsc1C(=O)NCC1CCN(c2ccccn2)CC1 ?
## Result -7.59
